# System under test: EP4 (Homo sapiens (Human))
# Sequence (P35408 whole entry): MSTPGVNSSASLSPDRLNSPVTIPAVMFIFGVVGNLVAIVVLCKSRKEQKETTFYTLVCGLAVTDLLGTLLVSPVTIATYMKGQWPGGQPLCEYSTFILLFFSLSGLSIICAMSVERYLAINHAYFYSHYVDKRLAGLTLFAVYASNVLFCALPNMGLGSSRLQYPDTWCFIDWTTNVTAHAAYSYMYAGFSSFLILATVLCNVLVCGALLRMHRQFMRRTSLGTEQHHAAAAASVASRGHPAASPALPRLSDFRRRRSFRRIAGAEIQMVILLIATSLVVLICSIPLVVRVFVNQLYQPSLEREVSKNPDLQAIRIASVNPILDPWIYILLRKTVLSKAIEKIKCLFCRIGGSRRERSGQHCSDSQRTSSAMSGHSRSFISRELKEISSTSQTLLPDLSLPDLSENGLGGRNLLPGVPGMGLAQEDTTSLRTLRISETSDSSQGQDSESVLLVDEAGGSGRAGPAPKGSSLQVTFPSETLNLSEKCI
# Measurement description: hEP4 cAMP assay (BT549 breast cancer cells, HTRF cAMP)
# Type: cell-based
# Condition: antagonistic activity; mean values where measured multiple times
Reported IC50 values are given for each entry in this list.
Assay endpoint: IC50 (nM)

{"columns": ["Compound", "Assay endpoint", "Recorded number"],
 "data": [
  ["CCOc1cc(-c2cc(NCCn3c(C)cc4c(OC)cc(F)c(F)c43)ncn2)sc1C(=O)O [compound 408]", "IC50", 3],
  ["CCCc1cc(-c2cc(NCCn3c(C)cc4cc(Cl)cc(F)c43)ncn2)cc(F)c1C(=O)O [compound 425]", "IC50", 521],
  ["COc1ccc(F)c2c1cc(C)n2CCNc1cc(-c2ccc(C(=O)CC#N)cc2)ncn1 [compound 710]", "IC50", 373],
  ["COc1cc(F)cc2c1cc(C)n2CCNc1cc(-c2ccc(-c3csc(C(=O)O)n3)cc2)ncn1 [compound 578]", "IC50", 52],
  ["Cc1cc(F)c(F)c2c1cc(C)n2CCNc1cc(-c2ccc3[nH]ccc3c2)ncn1 [compound 696]", "IC50", 131],
  ["COc1ccc(F)c2c1cc(C)n2CCNc1cc(-c2cc(Cl)c(C(=O)O)c(OCC(F)(F)F)c2)ncn1 [compound 725]", "IC50", 58],
  ["COc1cccc2c1cc(C)n2CCNc1cc(-c2ccc(-c3csc(CC(N)=O)n3)cc2)ncn1 [Example 785]", "IC50", 906],
  ["Cc1nc(-c2ccc(-c3cc(NCCn4c(C)cc5c(C)cc(F)cc54)ncn3)cc2)c[nH]1 [compound 548]", "IC50", 61],
  ["CCONC(=O)c1ccc(-c2cc(NCCn3c(C)cc4c(OC)ccc(F)c43)ncn2)cc1OCC [Example 767]", "IC50", 251],
  ["COc1c(F)cc(Cl)c2c1cc(C)n2CCNc1cc(-c2ccc(C(=O)O)c(SC)c2)ncn1 [compound 448]", "IC50", 508],
  ["Cc1c(F)cc(Cl)c2c1cc(C)n2CCNc1cc(-c2ccc(C(=O)O)c(SC(C)C)c2)ncn1 [compound 504]", "IC50", 535],
  ["COc1cc(F)cc2c1cc(C)n2CCNc1cc(-c2ccc(C(=O)O)c(NCC(F)(F)F)c2)ncn1 [compound 587]", "IC50", 106],
  ["CCNc1cc(-c2cc(NCCn3c(C)cc4c(OC)ccc(Cl)c43)ncn2)ccc1-c1nnn[nH]1 [compound 666]", "IC50", 40],
  ["CCCOc1cc(-c2cc(NCCn3c(C)cc4c(OC)cccc43)ncn2)cc(Cl)c1C(=O)O [compound 497]", "IC50", 168],
  ["COc1ccc(F)c2c1cc(C)n2CCNc1cc(-c2ccc(-c3nc(C(=O)O)cs3)cc2)ncn1 [compound 580]", "IC50", 32],
  ["Cc1ccc(Cl)c2c1cc(C)n2CCNc1cc(-c2ccc(C(=O)O)c(S/C=C/F)c2)ncn1 [Example 788]", "IC50", 925],
  ["CCCc1cc(-c2cc(NCCn3c(C)cc4c(C)ccc(F)c43)ncn2)cc(Cl)c1C(=O)O [compound 413]", "IC50", 55],
  ["CCCOc1cc(-c2cc(NCCn3c(C)cc4c(OC)cc(F)cc43)ncn2)ccc1C(=O)O [compound 493]", "IC50", 119],
  ["Cc1ccc(Cl)c2c1cc(C)n2CCNc1cc(-c2ccc(C(=O)O)c(SC3CCC3)c2)ncn1 [compound 452]", "IC50", 468],
  ["CCOc1cc(-c2cc(NCCn3c(C)cc4c(C)cc(F)cc43)nc(C(F)(F)F)n2)sc1C(=O)O [compound 626]", "IC50", 356],
  ["COc1cc(F)cc2c1cc(C)n2CCNc1cc(-c2ccc(-c3cnccn3)cc2)ncn1 [Example 750]", "IC50", 91],
  ["CCCOc1cc(-c2cc(NCCn3c(C)cc4c(OC)ccc(F)c43)ncn2)sc1C(=O)O [compound 677]", "IC50", 12],
  ["Cc1cnoc1-c1ccc(-c2cc(NCCn3c(C)cc4c(C)ccc(F)c43)ncn2)cc1 [compound 735]", "IC50", 620],
  ["CCNc1cc(-c2cc(NCCn3c(C)cc4c5c(cc(Cl)c43)OCO5)ncn2)ccc1C(=O)O [compound 460]", "IC50", 146],
  ["CNc1nnc(-c2ccc(-c3cc(NCCn4c(C)cc5c(C)cc(F)cc54)ncn3)cc2)s1 [compound 592]", "IC50", 39],
  ["COc1ccc(F)c2c1cc(C)n2CCNc1cc(-c2ccc(-c3cncn3C)cc2)ncn1 [compound 584]", "IC50", 148],
  ["CCCOc1cc(-c2cc(NCCn3c(C)cc4c(OC)cccc43)ncn2)cc(F)c1C(=O)O [compound 498]", "IC50", 609],
  ["COc1ccc(F)c2c1cc(C)n2C(C)CNc1cc(-c2ccc(C(=O)O)c(CC(C)C)c2)ncn1 (racemic) [Example 795]", "IC50", 306],
  ["COc1ccc(F)c2c1cc(C)n2CCNc1cc(-c2ccc(C3(C(=O)O)CC3)c(F)c2)ncn1 [compound 564]", "IC50", 317],
  ["CCCc1cc(-c2cc(NCCn3c(C)cc4c(OC(F)(F)F)ccc(F)c43)ncn2)ccc1C(=O)O [compound 570]", "IC50", 309],
  ["COc1cc(F)cc2c1cc(C)n2CCNc1cc(-c2ccc(-c3cc(C)[nH]n3)cc2)ncn1 [compound 583]", "IC50", 65]
]}
